# System: SF-295
# RUN_DESCRIPTION: NCI tumour cell line growth inhibition, 48 h
Calls of active or inactive are those of the source. Rule as the data show it: active = GI50 up to about 1.1 µM and inactive = higher.
Below, each entry is listed alongside its reported GI50.

compound=O=[N+]([O-])c1nccn1COCCI value="> 100 µM (inactive)"
compound="CC(=O)C1C(=O)C(=O)N(CCN2C(=O)C(=O)C(C(C)=O)C2=O)C1=O (centres undefined)" value="> 100 µM (inactive)"
compound=CC(=O)NNc1nc(C)c(C(/C=C/c2ccc3c(c2)OCO3)=N/Nc2ccccc2)s1 value="> 100 µM (inactive)"

Here's the next entry for you.
Looking up C[C@H](NC(=O)C(Cc1ccccc1)(Cc1ccc(O)cn1)NC(=O)c1ccccc1)c1ccccc1 (some centres undefined) , I found its GI50 recorded as 14.6 µM (inactive)
